System: Mouse Embryo Fibroblasts
experiment-notes: Proliferation of uninfected mouse embryo fibroblasts (MEF)
Type: cell-based
assay-setup: Mus musculus, Fibroblast, 72 h; dose 0.0062 μg/ml; uninfected MEF, 3 days treatment; read-out: MEF No. of cells
Experimental: Mouse embryo fibroblasts (MEF) were plated on 35 mm. Falcon plastic dishes and infected 24 hours later with Moloney Sarcoma Virus (MSV) in the presence of DEAE-dextran (25 μg./ml.). The samples were then treated for 3 days with different concentrations of the compounds of the invention. The number of foci of transformed cells was microscopically determined 5 days after the infection. Uninfected MEF were similarly treated and at the end of the experiment, the cells were counted in an haemocytometer. […]
measured-endpoint: activity at 0.0062 µg/mL (%)
Answer format: numeric, % implied, no suffix.

Look at this compound and give its reported activity at 0.0062 µg/mL. COc1cccc2c1C(=O)c1c(O)c3c(c(O)c1C2=O)C[C@@](O)(C(=O)CN1CCCCC1)C[C@@H]3O[C@H]1C[C@H](N)[C@H](O)[C@H](C)O1
87

Look at this compound and give its reported activity at 0.0062 µg/mL. COc1cccc2c1C(=O)c1c(O)c3c(c(O)c1C2=O)C[C@@](O)(C(=O)CN(CCO)CCO)C[C@@H]3O[C@H]1C[C@H](N)[C@H](O)[C@H](C)O1
100

Look at this compound and give its reported activity at 0.0062 µg/mL. COc1cccc2c1C(=O)c1c(O)c3c(c(O)c1C2=O)C[C@@](O)(C(=O)CN1CCN(CCO)CC1)C[C@@H]3O[C@H]1C[C@H](N)[C@H](O)[C@H](C)O1
67

Look at this compound and give its reported activity at 0.0062 µg/mL. COc1cccc2c1C(=O)c1c(O)c3c(c(O)c1C2=O)C[C@@](O)(C(=O)CN1CCOCC1)C[C@@H]3O[C@H]1C[C@H](N)[C@H](O)[C@H](C)O1
81

Look at this compound and give its reported activity at 0.0062 µg/mL. COc1cccc2c1C(=O)c1c(O)c3c(c(O)c1C2=O)C[C@@](O)(C(=O)CN1CCN(C)CC1)C[C@@H]3O[C@H]1C[C@H](N)[C@H](O)[C@H](C)O1 [14-[N-(N'-methyl)-piperazino]-daunomycin]
67

* * *

experiment-notes: Proliferation of uninfected mouse embryo fibroblasts (MEF)
Format: cell-based
assay-setup: mouse, mouse embryo fibroblasts
measured-endpoint: IC50 at 72 h (ng/mL)
Answer format: numeric, ng/mL implied, no suffix.

Look at this compound and give its reported IC50 at 72 h. COc1cccc2c1C(=O)c1c(O)c3c(c(O)c1C2=O)C[C@@](O)(C(C)=O)C[C@@H]3O[C@H]1C[C@H](N)[C@H](O)[C@H](C)O1
8.6

* * *

For each entry below, report its mortality value.
experiment-notes: Antitumor activity and toxicity on ascites Sarcoma 180 in CD 1 mice
Type: in vivo
assay-setup: mouse, in vivo, ip; 1 mg./kg. i.p.; read-out: % Toxic Deaths
Answer shape: numeric part, then the unit.

Look at this compound and give its reported mortality. COc1cccc2c1C(=O)c1c(O)c3c(c(O)c1C2=O)C[C@@](O)(C(=O)CN1CCN(C)CC1)C[C@@H]3O[C@H]1C[C@H](N)[C@H](O)[C@H](C)O1 [14-[N-(N'-methyl)-piperazino]-daunomycin]
0%

Look at this compound and give its reported mortality. COc1cccc2c1C(=O)c1c(O)c3c(c(O)c1C2=O)C[C@@](O)(C(=O)CN(CCO)CCO)C[C@@H]3O[C@H]1C[C@H](N)[C@H](O)[C@H](C)O1
0%

Look at this compound and give its reported mortality. COc1cccc2c1C(=O)c1c(O)c3c(c(O)c1C2=O)C[C@@](O)(C(C)=O)C[C@@H]3O[C@H]1C[C@H](N)[C@H](O)[C@H](C)O1
0%

* * *

experiment-notes: Antitumor activity and toxicity on ascites Sarcoma 180 in CD 1 mice
Format: in vivo
assay-setup: mouse, in vivo, ip; 1 mg./kg. i.p.; read-out: % Toxic Deaths
For each entry below, report its mortality value.
Answer format: numeric, % implied, no suffix.

Look at this molecule and give its reported mortality. COc1cccc2c1C(=O)c1c(O)c3c(c(O)c1C2=O)C[C@@](O)(C(=O)CO)C[C@@H]3O[C@H]1C[C@H](N)[C@H](O)[C@H](C)O1 [Adriamycin, reference compound]
0

Look at this molecule and give its reported mortality. COc1cccc2c1C(=O)c1c(O)c3c(c(O)c1C2=O)C[C@@](O)(C(=O)CN1CCN(CCO)CC1)C[C@@H]3O[C@H]1C[C@H](N)[C@H](O)[C@H](C)O1
0

Look at this molecule and give its reported mortality. COc1cccc2c1C(=O)c1c(O)c3c(c(O)c1C2=O)C[C@@](O)(C(=O)CN1CCCCC1)C[C@@H]3O[C@H]1C[C@H](N)[C@H](O)[C@H](C)O1 [14-(N-piperidino)-daunomycin]
0

Look at this molecule and give its reported mortality. COc1cccc2c1C(=O)c1c(O)c3c(c(O)c1C2=O)C[C@@](O)(C(=O)CN1CCOCC1)C[C@@H]3O[C@H]1C[C@H](N)[C@H](O)[C@H](C)O1 [14-(N-morpholino)-daunomycin]
0

* * *

For each entry below, report its activity at 0.4 µg/mL value.
Tested on: Moloney Sarcoma Virus (MSV)
experiment-notes: Inhibition of MSV-M foci formation in mouse embryo fibroblasts
Type: cell-based
assay-setup: Fibroblast, 120 h; dose 0.4 μg/ml; 3 days treatment, foci counted 5 days after infection; read-out: MSV-M No. of foci
Answer format: numeric, % implied, no suffix.

Hello, I am looking for reported activity at 0.4 µg/mL with Moloney Sarcoma Virus (MSV) for COc1cccc2c1C(=O)c1c(O)c3c(c(O)c1C2=O)C[C@@](O)(C(=O)CN(CCO)CCO)C[C@@H]3O[C@H]1C[C@H](N)[C@H](O)[C@H](C)O1 . Could you help?
0

Hello, I am looking for reported activity at 0.4 µg/mL with Moloney Sarcoma Virus (MSV) for COc1cccc2c1C(=O)c1c(O)c3c(c(O)c1C2=O)C[C@@](O)(C(=O)CN1CCN(CCO)CC1)C[C@@H]3O[C@H]1C[C@H](N)[C@H](O)[C@H](C)O1 . Could you help?
2

Hello, I am looking for reported activity at 0.4 µg/mL with Moloney Sarcoma Virus (MSV) for COc1cccc2c1C(=O)c1c(O)c3c(c(O)c1C2=O)C[C@@](O)(C(=O)CN1CCN(C)CC1)C[C@@H]3O[C@H]1C[C@H](N)[C@H](O)[C@H](C)O1 [14-[N-(N'-methyl)-piperazino]-daunomycin] . Could you help?
0

Hello, I am looking for reported activity at 0.4 µg/mL with Moloney Sarcoma Virus (MSV) for COc1cccc2c1C(=O)c1c(O)c3c(c(O)c1C2=O)C[C@@](O)(C(=O)CN1CCOCC1)C[C@@H]3O[C@H]1C[C@H](N)[C@H](O)[C@H](C)O1 . Could you help?
0

Hello, I am looking for reported activity at 0.4 µg/mL with Moloney Sarcoma Virus (MSV) for COc1cccc2c1C(=O)c1c(O)c3c(c(O)c1C2=O)C[C@@](O)(C(=O)CN1CCCCC1)C[C@@H]3O[C@H]1C[C@H](N)[C@H](O)[C@H](C)O1 . Could you help?
0

* * *

For each entry below, report its Toxic Deaths value.
Tested on: ascites Sarcoma 180
experiment-notes: Antitumor activity and toxicity on ascites Sarcoma 180 in CD 1 mice
Type: in vivo
assay-setup: 0.2 mg./kg. i.p.; deaths/total

Look at this molecule and give its reported Toxic Deaths. COc1cccc2c1C(=O)c1c(O)c3c(c(O)c1C2=O)C[C@@](O)(C(=O)CN(CCO)CCO)C[C@@H]3O[C@H]1C[C@H](N)[C@H](O)[C@H](C)O1
0/10

Look at this molecule and give its reported Toxic Deaths. COc1cccc2c1C(=O)c1c(O)c3c(c(O)c1C2=O)C[C@@](O)(C(=O)CN1CCCCC1)C[C@@H]3O[C@H]1C[C@H](N)[C@H](O)[C@H](C)O1
0/10

Look at this molecule and give its reported Toxic Deaths. COc1cccc2c1C(=O)c1c(O)c3c(c(O)c1C2=O)C[C@@](O)(C(C)=O)C[C@@H]3O[C@H]1C[C@H](N)[C@H](O)[C@H](C)O1
0/20

Look at this molecule and give its reported Toxic Deaths. COc1cccc2c1C(=O)c1c(O)c3c(c(O)c1C2=O)C[C@@](O)(C(=O)CN1CCN(C)CC1)C[C@@H]3O[C@H]1C[C@H](N)[C@H](O)[C@H](C)O1 [14-[N-(N'-methyl)-piperazino]-daunomycin]
0/10

Look at this molecule and give its reported Toxic Deaths. COc1cccc2c1C(=O)c1c(O)c3c(c(O)c1C2=O)C[C@@](O)(C(=O)CO)C[C@@H]3O[C@H]1C[C@H](N)[C@H](O)[C@H](C)O1 [Adriamycin, reference compound]
0/30

Look at this molecule and give its reported Toxic Deaths. COc1cccc2c1C(=O)c1c(O)c3c(c(O)c1C2=O)C[C@@](O)(C(=O)CN1CCN(CCO)CC1)C[C@@H]3O[C@H]1C[C@H](N)[C@H](O)[C@H](C)O1
0/10

Look at this molecule and give its reported Toxic Deaths. COc1cccc2c1C(=O)c1c(O)c3c(c(O)c1C2=O)C[C@@](O)(C(=O)CN1CCOCC1)C[C@@H]3O[C@H]1C[C@H](N)[C@H](O)[C@H](C)O1
0/10

Reference source for all entries: patent US4024224A
